This collection of values is drawn from patent US4367237A.

- Tested on: diarrhoea
- run description: Diarrhoea (Diarrhoea-producing activity)
- Type: in vivo
- assay setup: diarrhoea in 50% of mice, oral
Property: Diarrhoea (Diarrhoea-producing activity), relative to PGE1; scope: individual molecules
readout label: Diarrhoea (Diarrhoea-producing activity), relative to PGE1

[[record]]
molecule = "CCCCC[C@H](O)/C=C/[C@@H]1[C@H]2C/C(=C/CCCC(=O)OC)O[C@H]2C[C@H]1O [PGI2 methyl ester, reference compound]"
reported_result = "< 0.1"

[[record]]
molecule = "CCCCC[C@H](O)/C=C/[C@@H]1[C@H]2CC(CCCCC(=O)OC)S[C@H]2C[C@H]1O (mixture of isomers) [A]"
reported_result = 0.072

[[record]]
molecule = "CCCCC1([C@H](O)/C=C/[C@@H]2[C@H]3CC(CCCCC(=O)OC)S[C@H]3C[C@H]2O)CCC1 (stereo partly drawn) [C]"
reported_result = "< 0.02"

